- Tested on: Candida albicans
- PROTOCOL: Antifungal activity against Candida albicans clinical isolate after 48 hrs by broth microdilution technique
- Format: functional, organism-based
Give measured IC50 for each item. Keep answers brief.
# output: bare number, implied unit µg/mL

-- ask Consider the compound CCCCCCCCSC(=S)n1ccnc1 and give its measured IC50.
-- reply 1.06

-- ask Endpoint output: IC50 of CSC(=S)n1ccnc1C . Value?
-- reply 25.9

-- ask May I ask what IC50 has been recorded for CCCCSC(=S)n1ccnc1C ?
-- reply 2.12

-- ask Recorded IC50 for O=C1c2ccccc2C(=O)N1CCSC(=S)n1ccnc1 , please?
-- reply 16

-- ask Looking for the measured IC50 of C=CCSC(=S)n1ccnc1 , can you help?
-- reply 1.8

Hey, just so you know, these numbers are from ChEMBL document CHEMBL3085764.
